- methodDescription: gradient 5% acetonitrile 3 min, to 50% in 2 min, to 85% in 15 min, held 3 min, 100 µL/min
- conditionInfo: column: Zorbax Extend-C18 2.1 x 50 mm; eluents: water / acetonitrile, 0.1% formic acid
reportedEndpoint: RP-LC retention time (s)
One number for each entry, in s.

Consider the reported RP-LC retention time for these compounds:
compound=COc1ccc([N+](=O)[O-])cc1NC(=O)c1cnc(N2CCN(c3ncccn3)CC2)c2ccccc12 reportedendpoint="RP-LC retention time" scaleunit=s readoutvalue=973
compound=CCOc1ccnc2c1c(=O)n(CC(=O)Nc1cccc(C(F)(F)F)c1)c(=O)n2C reportedendpoint="RP-LC retention time" scaleunit=s readoutvalue=782
compound=CC(=O)Nc1ccc(N2CCN(C3CCCCC3)CC2)cc1C(=O)O reportedendpoint="RP-LC retention time" scaleunit=s readoutvalue=588

Hello, I would appreciate it if you could give RP-LC retention time for each entry below.
1. CSc1ccc(CNC(=O)c2[nH]c3cc(C)sc3c2CN(C)C)cc1
2. CC(=O)Nc1ccc(-n2cnc(C(=O)NC(C)c3ccc(F)cc3)c2)nc1 (stereo not drawn)
3. CCCN(CC1CCOC1)C(=O)Nc1cc(C)ccc1OC (stereo not drawn)

### Response
[689, 701, 874]

Hello, I would appreciate it if you could give RP-LC retention time for each entry below.
1. COc1ccc(Cl)cc1NC(=O)Cn1nc(N2CCCC2)c2ccccc2c1=O
2. O=c1c2ccccc2oc2nc(-c3ccco3)n(Cc3ccccc3)c(=O)c12
3. CCC1Cn2c(C(=O)NCCc3c[nH]c4ccccc34)cc3c(Cl)ccc(c32)O1 (stereo not drawn)

### Response
1. 1090
2. 797
3. 1220

Hello, I would appreciate it if you could give RP-LC retention time for each entry below.
1. O=C(Nc1ncnc2sccc12)c1ccc([N+](=O)[O-])o1
2. CCn1nc(-c2nc(-c3ccc(Cl)cc3)no2)ccc1=O
3. CC(C)n1nnc2cc(S(=O)(=O)N3CCCC(C(=O)N4CCN(c5ccccn5)CC4)C3)ccc21 (stereo not drawn)
4. CC1CCN(C(=O)C2=CN(c3cc(F)cc(F)c3)c3ccccc3S2(=O)=O)CC1
5. CCOC(=O)c1c(NCc2ccccc2Cl)c2cccc(Cl)c2[nH]c1=O
6. Cc1cc(OCC(=O)N[C@@H](Cc2ccccc2)C(=O)O)c2c3c(c(=O)oc2c1)CCC3

### Response
664
1030
644
945
867
835

FYI, the data here is from the METLIN SMRT retention time set (Domingo-Almenara et al. 2019).
